Experiment: Lipophilicity, logD at pI
Assay type: physicochemical
Conditions: octanol/water
Let's look at some compounds and their measured logD.
Number, no unit, nothing else.

C/C=C1/C(=O)N[C@@H](C(=O)O)[C@H](C)C(=O)N[C@@H](CCCNC(=N)N)C(=O)N[C@@H](/C=C/C(C)=C/[C@H](C)[C@H](Cc2ccccc2)OC)[C@H](C)C(=O)N[C@@H](C(=O)O)CCC(=O)N1C    -3.1

The reported logD of the compound C/C=C1/NC(=O)CC[C@H](C(=O)OCOC(=O)CC)NC(=O)[C@@H](C)[C@H](/C=C/C(C)=C/[C@H](C)[C@H](Cc2ccccc2)OC)NC(=O)[C@H](CCCNC(=N)N)NC(=O)[C@@H](C)[C@H](C(=O)OCOC(=O)CC)NC1=O was 1.6
